- System Name: MMP-14 (Homo sapiens, UniProt P50281)
- Construct: The catalytic domain enzyme was expressed in E. coli inclusion bodies, solubilized in urea; made in house
- Run Description: MMP-14 inhibition (in vitro Ki)
- Type: biochemical
- Particulars: Table 10; read-out: MMP-14 Ki
Below is a list of entries, each paired with its recorded Ki value.
Numeric answer only, unit nM assumed.

1. COCCC(CCOC)(C(=O)NO)S(=O)(=O)N1CCC(Oc2ccc(SC(F)(F)F)cc2)CC1 : 1640
2. COCCC(C(=O)NO)S(=O)(=O)N1CCC(Oc2ccc(SC(F)(F)F)cc2)CC1 (stereo not shown) : 1950

Turning to the following compound.
**Q:** Item: CCC(CC)(C(=O)NO)S(=O)(=O)N1CCC(Oc2ccc(SC(F)(F)F)cc2)CC1 Test system: MMP-14 (Homo sapiens, UniProt P50281) Read-out: Ki Value: ?
**A:** 1540

###

Below is a list of entries, each paired with its recorded pKi value.
- System Name: MMP-14 (Homo sapiens)
- Construct: The catalytic domain enzyme was expressed in E. coli inclusion bodies, solubilized in urea; made in house
- Run Description: In vitro MMP inhibition, Ki determination (fluorogenic substrate II)
- Format: biochemical
- Particulars: value outside parentheses; read-out: MMP-14 Ki
- Protocol: Several hydroxamic acids and salts thereof were analyzed in in vitro assays to determine their ability to inhibit the MMP cleavage of peptide substrates. […] and IC50 constants were calculated from the assayed hydroxamic acid-MMP interactions. […] The assays from which the Ki determinations were made were performed as follows. […] In the absence of MMP inhibitory activity, substrate II was cleaved at the Gly-Leu bond resulting in an increase of relative fluorescence. […]
Keep it numeric: pKi is minus log10 of the concentration in mol/L.

The following compounds have reported results that may help.
1) CC(C)CCOc1ccc(N2CCN(S(=O)(=O)C3(C(=O)NO)CCOCC3)CC2)cc1 [Example 279] : 5.37
2) O=C(NO)C1(S(=O)(=O)N2CCN(c3ccc(CCCC(F)(F)F)cc3)CC2)CCOCC1 [Example 320] : 5.41

**Q:** Query (compound): Cc1cccc(-c2cnc(N3CCN(S(=O)(=O)C4(C(=O)NO)CCOCC4)CC3)s2)c1 [Example 370] ; field requested: pKi
**A:** 6.47

**Q:** Same lookup for CCCCOc1ccc(N2CCN(S(=O)(=O)C3(C(=O)NO)CCN(C(=O)CC(F)(F)F)CC3)CC2)cc1 [Example 265] , please.
**A:** 5.42

**Q:** Same lookup for CCCCOc1ccc(N2CCN(S(=O)(=O)C3(C(=O)NO)CCN(c4ccc(O)nn4)CC3)CC2)cc1 [Example 283] , please.
**A:** 6.26

###

Below is a list of entries, each paired with its recorded Ki value.
- System Name: MMP-14 (Homo sapiens, UniProt P50281)
- Construct: The catalytic domain enzyme was expressed in E. coli inclusion bodies, solubilized in urea; made in house
- Run Description: In vitro MMP inhibition, Ki determination (fluorogenic substrate II)
- Assay type: biochemical
- Particulars: value not in parenthesis; read-out: MMP-14 Ki

**Q:** Query (molecule): O=C1c2ccccc2C(=O)N1CCCCc1ccc(N2CCN(S(=O)(=O)C3(C(=O)NO)CCOCC3)CC2)nc1 ; field requested: Ki
**A:** 158 nM

**Q:** Same lookup for CCCCOc1ccc(N2CCN(S(=O)(=O)C3(C(=O)NO)CCN(c4ccc(C)nc4)CC3)CC2)cc1 , please.
**A:** 3660 nM

**Q:** Same lookup for COCCN1CCC(C(=O)NO)(S(=O)(=O)N2CCN(c3ccc(OCCCCF)cc3)CC2)CC1 , please.
**A:** 2760 nM
